target: human PD-1 (wild-type), expressed on cells (human, UniProt Q15116 25-288); test: cell-based or functional assay
Sequence (Q15116 25-288 limits assumed): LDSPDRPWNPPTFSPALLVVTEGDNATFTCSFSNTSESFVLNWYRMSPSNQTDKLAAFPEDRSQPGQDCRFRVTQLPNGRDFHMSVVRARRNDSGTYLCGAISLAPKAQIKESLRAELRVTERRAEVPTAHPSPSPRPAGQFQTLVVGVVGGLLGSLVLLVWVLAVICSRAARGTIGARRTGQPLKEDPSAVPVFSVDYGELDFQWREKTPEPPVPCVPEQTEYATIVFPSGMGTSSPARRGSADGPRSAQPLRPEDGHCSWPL
PROPERTY_MEASURED: Cell-cell contact assay (ng/mL)
Give the quantity in ng/mL, number only.

# input binder: humanized HM297-H5-IgG1-K322A (antibody, V domains shown) VH: QVQLVQSGPEVKKPGASVKIPCKASGYTFTDYNVDWVRQVPGQGLEWMGDIDPNNGGTIYNQKFKDRVTMTVDKSTRTAYMELRSLRSDDTAVYYCARWRGAMDYWGQGTLVTVSS VL: DIQMTQSPSSLSASVGDRVTITCRASQDIDNYLKWYQQKPDGTVKLLIYDTSRLHSGVPSRFSGSGSGTDYTLTISSLKQEDFATYYCQQGYTLPWTFGQGTKLEIKR ; wanted: its Cell-cell contact assay 96.4

Cited source: patent US20240317859A1
